molecular target: wild-type Gαi1 subunit (rat, UniProt P10824 2-354); experiment: SPR
Sequence (P10824 2-354): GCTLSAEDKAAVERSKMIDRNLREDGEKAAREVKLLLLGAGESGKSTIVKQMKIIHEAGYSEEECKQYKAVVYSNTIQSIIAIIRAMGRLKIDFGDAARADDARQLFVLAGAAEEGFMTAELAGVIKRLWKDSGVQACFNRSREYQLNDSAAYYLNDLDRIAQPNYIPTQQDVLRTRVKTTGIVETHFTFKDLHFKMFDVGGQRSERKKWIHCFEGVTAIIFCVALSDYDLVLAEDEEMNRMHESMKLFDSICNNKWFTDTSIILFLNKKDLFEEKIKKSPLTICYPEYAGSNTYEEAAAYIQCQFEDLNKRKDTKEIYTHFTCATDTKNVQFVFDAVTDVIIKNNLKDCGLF
Ends that are not written are not given here. * marks the point of attachment. Biotin = O=C1N[C@H]2[C@H](CS[C@H]2CCCCC(=O)*)N1
Value Kind: Kd (nM)
Answers are plain numbers, in nM.

input: # input binder: Biotin-SSRGYYHGIWVGEEGRLSR [peptide KB-1753] ; wanted: its Kd
output: 1100
